Where these numbers come from: patent US20250223342A1

Tgt: T1, human serum albumin (human, UniProt P02768 25-609)
T1 construct: also called HSA
Test details: SPR (Biacore), VHH clone, pH 5.5
Form field: Kd (one value per entry).
// units = nM; emit number, no label

Study these solved cases before continuing.
11C03 (VHH, also called 11C03 parental (VHH)) VHH: QLQVVESGGGLVQAGGSLRLSCAASERTFVAYPMGWFRQAPEKEREFVAGISWFAGATTDYADSVEGRFTISRDNAKNTAYLQMNNLKPEDTAVYYCAISHQLPGGRPGRDMDSYSYWGHGTQVTVSS ... 4.12
9E10 (VHH) VHH: QLQVVESGGGLVQAGGSLRLSCTTSGRAFIGYAMGWFRQAPGKEREFVAAISWFAGDTTDYANSVKGRFTISRDNAKNTVYLQMNSLKPEDTAVYVCAASSARPLSSRSDEYHYWGQGTQVTVSS ... 15.4
2H11 (VHH, also called 2H11 parental (VHH)) VHH: ELQVVESGGGLVQAGGSLRLSCAASGRTFRSNTMGWFRQAPGKEREFVAAITWSGGTTYYADSVKGRFAISGDNAKNTVYLQMNSLKPEDTAVYYCAAEGPKWEPWNGIYHPADFGSWGQGTQVTVSS ... 6.84
9F02 (VHH) VHH: EVQLVESGGGLVQAGGSLRLSCTASRRAFIGYAMGWFRQAPGKEREFVAAISWFAGDTTDYADSVKGRFTISRDNAKNTVYLQMNGLKPEDTAVYVCAASSARPMSGRSDEYHYWGQGTQVTVSS ... 0.575
2B03 (VHH) VHH: QLQLVESGGGLVQAGGSLRLSCAASGRAISSYVMAWFRQAPGKEREFVTSINWSGGSTYYAHSVKGRFTISRDNAKNTVYLQMNTLKPEDTAVYYCAADLYGLGYEVMSYDYWGQGTQVTVSS ... 16.6
1E04 (VHH) VHH: QLQLVESGGGLVQTGGSLRLSCAASGRTFSNYNAGWFRQVPGKEPEFVAAINWSGGTTYYADSVKGRFTISRDNAKNTVYLQMNSLKPEDTAVYYCAADPDWSILNPREYDYWGQGTRVTVSS ... 55.2

Request the reported Kd associated with 12G03 (VHH) VHH: QVQLVESGGGLVQAGGSLRLSCAASERAFSHSNMAWFRQAPGKEREFVAHIHWRGSTTYLDSVKGRFTISRDNAKNTVYLQMNGLRLEDTAVYYCAADSARRILVTVSTSYDYWGQGTQVTVSS
8.14

Request the reported Kd associated with 4G12 (VHH) VHH: QLQLVESGGGLVQAGGSLRLSCVASGRSFSTYGMGWFRQAPGAEREFAAAINWKGDRYYADSVKGRFTISRDNAKNTVFLEMNSLKPEDTGVYYCAADSDGSAFSRRLEYDYWGQGTQVTVSS
12.4

Request the reported Kd associated with 2C10 (VHH) VHH: QLQLVESGGGLVQAGGSLRLSCAASGRTFSSYAMGWFRQAPGKEREFVAVISWSGGSTYYADSVKGRFTISGDNAKNTVYLQMNSLKPEDTAVYYCATEGPKWEPYNGIYSPADFGSWGQGTQVTVSS
49.3

Request the reported Kd associated with 2A10 (VHH) VHH: EVQLVESGGGLVQAGGSLRLSCAASGRTFSSYAMGWFRQAPGKEREFVATINWSGGSTYYADSVKGRFTISRDNAKNTVYLQMNSLKPEDTAVYYCAADLYGPGFVLSMEYDYWGQGTQVTVSS
96.9
